molecular target: FRedA/B (Lactobacillus johnsonii, UniProt A0A7D9N7Z8+A0A7D9N811); construct: full-length, both chains N-terminal His6, co-expressed and co-purified from E. coli BL21 (p15TV-fredA + pCDF-his-fredB); heterodimer 43 kDa; assay: isothermal titration calorimetry
Sequence (A0A7D9N7Z8 entry or part of it): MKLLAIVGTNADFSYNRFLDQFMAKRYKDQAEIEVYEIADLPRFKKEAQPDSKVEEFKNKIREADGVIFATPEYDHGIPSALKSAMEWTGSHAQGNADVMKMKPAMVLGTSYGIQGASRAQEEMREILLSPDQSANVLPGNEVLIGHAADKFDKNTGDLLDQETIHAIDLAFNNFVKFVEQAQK
Sequence (A0A7D9N811 entry or part of it): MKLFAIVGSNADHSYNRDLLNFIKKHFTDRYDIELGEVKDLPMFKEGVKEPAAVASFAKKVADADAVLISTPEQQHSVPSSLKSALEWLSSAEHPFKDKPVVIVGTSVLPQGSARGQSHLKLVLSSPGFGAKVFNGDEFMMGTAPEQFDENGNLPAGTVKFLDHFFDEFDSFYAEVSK
Endpoint Name: Kd (nM)
Report the figure in nM without appending any unit label.

Incoming: Please tell me: Kd of Cc1cc2nc3c(=O)[nH]c(=O)nc-3n(C[C@H](O)[C@H](O)[C@H](O)COP(=O)(O)O)c2cc1C [FMN] , system FRedA/B (Lactobacillus johnsonii, UniProt A0A7D9N7Z8+A0A7D9N811)?
Outgoing: 1960
